Each record here notes measured GI50.
- Tested on: SK-MEL-2 melanoma
- measurementDescription: NCI tumour cell line growth inhibition, 48 h

| compound | GI50 |
| --- | --- |
| COc1cc(Nc2ncccc2C(=O)NCc2cn(Cc3cccc(Oc4ccccc4)c3)nn2)cc(OC)c1 | 6.68 µM |
| NC(=O)/C=C/C(=O)c1c(Cl)cccc1Cl | 1.83 µM |
| Cc1cc(C)c2c(n1)sc1c(Nc3ccc(Cl)cc3)ncnc12 | > 100 µM |
| CCCCC#CC1=C(Br)C(=O)OC1 | 3.12 µM |
| CCCCOC(=O)CNC(=O)OC/C=C/C#CC#C/C=C/COC(=O)NCC(=O)OCCCC | > 100 µM |
| COc1cc(OCc2cccc(-c3ccc(C(O)c4nccs4)cc3)c2C)cc(OC)c1C=O (stereo not given) | 2.58 µM |
| COC(=O)c1ccc2c(c1)nc(NC(=O)c1ccccc1)n2CCCc1ccccc1 | 5.58 µM |
| C#CCOc1cccc(-c2ncc3cc(NC(=O)CCl)ccc3n2)c1 | 1.58 µM |
| CO/N=C(/C)c1cccc(Nc2cc(-n3nnc4ccccc43)nc3ccccc23)c1 | > 100 µM |
| CC(=O)OC1COC(Oc2c(C)c3c4c(c2O)[C@@H](C)CC[C@@H]4[C@@H](C)C[C@H]3C=C(C)C)C(O)C1OC(C)=O (stereo not given in full) | 17.9 µM |

The measurements presented in this section are drawn from PubChem BioAssay (NCI).
